tested on: J774.A1 cells; experiment: Cytotoxicity assay (sulforhodamine B); type: cell-based, murine; conditions: Mus musculus, J774.A1; murine macrophages, 48 h, sulforhodamine B
endpoint name: IC50

(Q) // query IC50 value for entry COc1ccc(-c2cn(-c3ccc(OC)c(OC)c3)nn2)cc1 [Compound 8]
(A) 79.2 µM

(Q) // query IC50 value for entry COc1cc(-c2cn(-c3ccc4c(c3)OCO4)nn2)cc(OC)c1OC [Compound 18]
(A) 66.9 µM

(Q) // query IC50 value for entry COc1cccc2c1C(=O)c1c(O)c3c(c(O)c1C2=O)C[C@@](O)(C(=O)CO)C[C@@H]3O[C@H]1C[C@H](N)[C@H](O)[C@H](C)O1 [Doxorubicin, reference compound]
(A) 0.5 µM

(Q) // query IC50 value for entry COc1cc(-c2cn(-c3cc(OC)c(OC)c(OC)c3)nn2)cc(OC)c1OC [Compound 6]
(A) > 623 µM

* * *

tested on: L. (L.) amazonensis intracellular amastigotes; assay: In vitro antileishmanial activity on intracellular amastigotes in peritoneal macrophages; assay type: cell-based, Leishmania (Leishmania) amazonensis; conditions: Leishmania amazonensis, Peritoneal macrophage, in Mus musculus; infected BALB/c peritoneal macrophages, treated 24 h; read-out: Intracellular Amastigotes IC50
Would you kindly list log10 of IC50 for each of these compounds?
In plain terms, each number is the log10 of measured IC50 in µM.

(Q) // query log10 of IC50 value for entry COc1cc(-c2cn(-c3cc(OC)c(OC)c(OC)c3)nn2)cc(OC)c1OC
(A) 0.97

(Q) // query log10 of IC50 value for entry COc1ccc(-c2cn(-c3ccc(OC)c(OC)c3)nn2)cc1OC
(A) 1.33

(Q) // query log10 of IC50 value for entry COc1ccc(-c2cn(-c3cc(OC)c(OC)c(OC)c3)nn2)cc1
(A) 1.23

(Q) // query log10 of IC50 value for entry c1cc2c(cc1-c1cn(-c3ccc4c(c3)OCO4)nn1)OCO2
(A) 1.31

(Q) // query log10 of IC50 value for entry COc1ccc(-n2cc(-c3ccc4c(c3)OCO4)nn2)cc1OC
(A) 1.48

(Q) // query log10 of IC50 value for entry COc1ccc(-c2cn(-c3ccc(OC)cc3)nn2)cc1
(A) 1.12

(Q) // query log10 of IC50 value for entry COc1ccc(-n2cc(-c3ccc4c(c3)OCO4)nn2)cc1
(A) 1.71

(Q) // query log10 of IC50 value for entry COc1ccc(-c2cn(-c3ccc(OC)c(OC)c3)nn2)cc1
(A) 1.20

(Q) // query log10 of IC50 value for entry C[C@@H]1[C@H](O)[C@@H](C)/C=C/C=C/C=C/C=C/C=C/C=C/C=C/[C@H](O[C@@H]2O[C@H](C)[C@@H](O)[C@H](N)[C@@H]2O)C[C@@H]2O[C@](O)(C[C@@H](O)C[C@@H](O)[C@H](O)CC[C@@H](O)C[C@@H](O)CC(=O)O[C@H]1C)C[C@H](O)[C@H]2C(=O)O [Amphotericin B, reference compound]
(A) -0.15

(Q) // query log10 of IC50 value for entry COc1ccc(-n2cc(-c3cc(OC)c(OC)c(OC)c3)nn2)cc1
(A) 1.22

(Q) // query log10 of IC50 value for entry COc1ccc(-c2cn(-c3ccc4c(c3)OCO4)nn2)cc1OC
(A) 1.51

(Q) // query log10 of IC50 value for entry COc1ccc(-n2cc(-c3cc(OC)c(OC)c(OC)c3)nn2)cc1OC
(A) 1.47

(Q) // query log10 of IC50 value for entry COc1ccc(-c2cn(-c3cc(OC)c(OC)c(OC)c3)nn2)cc1OC
(A) 0.75

(Q) // query log10 of IC50 value for entry COc1cc(-c2cn(-c3ccc4c(c3)OCO4)nn2)cc(OC)c1OC
(A) 1.47

(Q) // query log10 of IC50 value for entry COc1cc(-n2cc(-c3ccc4c(c3)OCO4)nn2)cc(OC)c1OC
(A) 0.64

(Q) // query log10 of IC50 value for entry COc1ccc(-c2cn(-c3ccc4c(c3)OCO4)nn2)cc1
(A) 1.17

(Q) // query log10 of IC50 value for entry COc1ccc(-n2cc(-c3ccc(OC)c(OC)c3)nn2)cc1
(A) 1.26
